# assayExplanation: modulators of HCV replicon luciferase signal, primary screen, HCV replication inhibitor project, Huh7 cells, luciferase reporter (AID 1109);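 note: huh7 hepatoma cells harbouring a luciferase neomycin HCV replicon reporter; luciferase luminescence as measure of HCV replicon replication; test concentration not given here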
# measurementSetup: 48 h, higher = more signal
Decide by z-score: equal to or exceeding -2 means y, less means n.

Some entries whose results are on file:
[[record]]
molecule = "NC(N)=NCc1cn(CCc2c[nH]c3ccccc23)nn1"
classlabel = "y"

[[record]]
molecule = "CCCc1cccc(=O)o1"
classlabel = "y"

[[record]]
molecule = "C=CCC(OC(C)=O)[C@@H]1[C@@H](N(Cc2cc3ccccc3o2)C(=O)c2ccc(C)cc2)c2cc(OCCCO)ccc2N1C(=O)Cc1ccc2ccccc2c1 (stereo partly specified)"
classlabel = "y"

[[record]]
molecule = "C=C(C(=O)CC[C@H](OC(=O)c1cccnc1)c1cccc(OCCO)c1)C(C)C"
classlabel = "n"

[[record]]
molecule = "CCC[C@@H]1C[C@@]1(CCC)[C@@H](NP(=O)(c1ccccc1)c1ccccc1)c1ccc(Cl)cc1"
classlabel = "y"


We now examine a further molecule.
Query block: Check this molecule for z-score at or above -2: CC=CC(O)C1C=CC2C(=O)N(c3ccccc3)C(=O)C2N1Nc1ccccc1 (stereo unspecified)
Result block: y

----------
# assayExplanation: binders of probe aFGF2 on microarray, primary screen, stem cell growth factor project, biochemical, small-molecule microarray, fluorescence 635/667 (AID 1067);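 note: measures binding of biotinylated aFGF2 protein to printed compounds on slides; z-score merges feature fluorescence and signal-to-noise across triplicate slides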
# measurementSetup: higher = more signal
# class assignment by measured composite z-score: bin 0 (below -0.1), bin 1 (-0.1 to below -0.02), bin 2 (-0.02 or more)

[[record]]
compound = "O=C(N1CCCCC1)[C@@]1(Cc2ccccc2)COC(c2ccc(OCCCO)cc2)=N1"
classlabel = "bin 2"

[[record]]
compound = "CC1CC/C=C\\[C@H]2OC34C=CCN(CCN5CCOCC5)C(=O)[C@H]3N(CCO)C(=O)[C@@H]4C2C(=O)O1 (some centres undefined)"
classlabel = "bin 2"


Query block: Where would `C=CCOC(=O)[C@H]1[C@@H]2C(=O)O[C@@H](c3ccccc3)[C@@H](c3ccccc3)N2[C@@H](c2ccc(OCCOC(=O)[C@H]3C[C@H]4C(=O)N[C@@H](Cc5ccccc5)C(=O)N4[C@H]3c3ccc(O)cc3)cc2)[C@]12C(=O)Nc1ccc(I)cc12` land among the classes by reported composite z-score?
Result block: bin 2

Query block: Where would `COc1ccc([Si](C)(C)[C@@H]2[C@@H](CCO)O[C@]3(C(=O)N(Cc4cccc(N5C(=O)c6ccccc6Oc6ccccc65)c4)c4ccccc43)[C@H]2C)cc1` land among the classes by reported composite z-score?
Result block: bin 0

Query block: Where would `NCCCCCCNC(=O)[C@H]1C[C@H]2C(=O)N[C@@H](Cc3ccccc3)C(=O)N2[C@H]1c1ccc(O)cc1` land among the classes by reported composite z-score?
Result block: bin 1

Query block: Where would `COc1ccc([Si](C)(C)[C@@H]2[C@@H](CCO)O[C@]3(C(=O)N(Cc4cccc(N5C(=O)c6cccc7cccc5c67)c4)c4ccccc43)[C@H]2C)cc1` land among the classes by reported composite z-score?
Result block: bin 0

Query block: Where would `CC(=O)NCCCC[C@@H]1NC(=O)[C@@H]2C[C@H](C(=O)O)[C@H](c3ccc(O)cc3)N2C1=O` land among the classes by reported composite z-score?
Result block: bin 0

Query block: Where would `O=C1c2ccccc2[C@@]2(Cc3ccccc3N(C3CC3)C2=O)[C@H](c2ccc(CO)cc2)N1C1CCCCC1` land among the classes by reported composite z-score?
Result block: bin 1
